Values were extracted from patent US20090304692A1.

target.desc: PI3K-α (Homo sapiens, UniProt P42336)
Sequence (P42336 whole entry, species assumed): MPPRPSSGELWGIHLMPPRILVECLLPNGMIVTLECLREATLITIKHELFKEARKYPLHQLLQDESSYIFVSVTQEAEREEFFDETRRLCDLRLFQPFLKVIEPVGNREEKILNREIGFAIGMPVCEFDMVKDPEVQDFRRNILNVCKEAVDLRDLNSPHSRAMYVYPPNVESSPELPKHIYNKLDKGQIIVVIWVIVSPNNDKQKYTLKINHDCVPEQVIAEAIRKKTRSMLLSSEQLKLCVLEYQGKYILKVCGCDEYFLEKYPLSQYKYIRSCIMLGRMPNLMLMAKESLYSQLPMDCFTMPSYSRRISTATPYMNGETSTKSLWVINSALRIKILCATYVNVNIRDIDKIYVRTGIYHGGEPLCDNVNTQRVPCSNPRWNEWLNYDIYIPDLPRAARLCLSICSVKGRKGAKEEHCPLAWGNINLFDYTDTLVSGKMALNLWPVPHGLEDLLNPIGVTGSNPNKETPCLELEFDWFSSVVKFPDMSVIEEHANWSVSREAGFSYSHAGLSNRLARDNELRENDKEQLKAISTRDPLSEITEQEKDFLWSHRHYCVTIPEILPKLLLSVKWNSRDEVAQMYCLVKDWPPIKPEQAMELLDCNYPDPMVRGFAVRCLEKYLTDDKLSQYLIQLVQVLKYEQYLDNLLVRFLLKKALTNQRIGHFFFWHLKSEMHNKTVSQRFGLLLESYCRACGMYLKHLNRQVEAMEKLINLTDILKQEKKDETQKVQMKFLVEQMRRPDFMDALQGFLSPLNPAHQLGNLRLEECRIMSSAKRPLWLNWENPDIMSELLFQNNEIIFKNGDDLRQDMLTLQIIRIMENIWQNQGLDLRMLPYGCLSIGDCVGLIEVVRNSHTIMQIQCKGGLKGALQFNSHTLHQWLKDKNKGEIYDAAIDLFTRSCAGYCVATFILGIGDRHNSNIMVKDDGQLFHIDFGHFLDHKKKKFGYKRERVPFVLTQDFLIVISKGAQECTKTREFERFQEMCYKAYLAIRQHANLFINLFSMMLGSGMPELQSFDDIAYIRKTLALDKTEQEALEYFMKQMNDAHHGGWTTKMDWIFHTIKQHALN
Sequence (P27986 whole entry partner, species assumed): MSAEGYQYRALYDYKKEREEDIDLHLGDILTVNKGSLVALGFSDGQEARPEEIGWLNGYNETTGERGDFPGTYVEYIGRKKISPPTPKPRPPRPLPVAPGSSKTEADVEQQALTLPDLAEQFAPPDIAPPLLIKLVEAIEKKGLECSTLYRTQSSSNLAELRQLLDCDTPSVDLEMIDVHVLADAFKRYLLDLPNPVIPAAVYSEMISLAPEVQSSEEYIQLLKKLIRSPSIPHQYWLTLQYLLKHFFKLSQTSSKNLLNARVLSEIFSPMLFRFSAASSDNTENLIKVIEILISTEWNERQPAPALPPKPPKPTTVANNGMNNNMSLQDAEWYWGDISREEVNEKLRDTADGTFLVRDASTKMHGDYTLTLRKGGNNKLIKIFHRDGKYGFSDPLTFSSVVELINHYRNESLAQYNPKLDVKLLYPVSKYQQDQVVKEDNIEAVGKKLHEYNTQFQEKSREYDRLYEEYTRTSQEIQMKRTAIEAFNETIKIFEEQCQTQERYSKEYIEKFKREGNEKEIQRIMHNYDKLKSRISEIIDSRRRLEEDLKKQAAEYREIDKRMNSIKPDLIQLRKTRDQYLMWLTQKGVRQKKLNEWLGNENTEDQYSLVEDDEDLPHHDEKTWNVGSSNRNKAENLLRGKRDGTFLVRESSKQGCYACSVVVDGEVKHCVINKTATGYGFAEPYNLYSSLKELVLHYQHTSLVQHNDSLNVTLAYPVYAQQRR
method.notes: PI3K-alpha fluorescence polarization assay
protocol.conditions: read-out: IC50 PI3Kα
pIC50: −log10 of the molar value.
measurement.name: pIC50

Worked examples, 10 compounds total:
INSERT INTO assay_data (smi, reported) VALUES
  ('O=C(Nc1ccc(CO)cc1)Nc1ccc(-c2nc(N3CC4CCC(C3)O4)nc(N3CC4CCC(C3)O4)n2)cc1', 7.35),
  ('COC(=O)c1ccc(NC(=O)Nc2ccc(-c3nc(-c4ccc(C)cc4)nc(N4CCOCC4)n3)cc2)cc1', 5.79),
  ('CN1CCN(C(=O)c2ccc(NC(=O)Nc3ccc(-c4nc(N5CCCC5)nc(N5CCOCC5)n4)cc3)cc2)CC1', 7.92),
  ('O=C(NCCO)Nc1ccc(-c2nc(Nc3ccc(N4CCNCC4)cc3)nc(N3CC4CCC(C3)O4)n2)cc1', 6.58),
  ('CC(C)N1CCN(C(=O)c2ccc(NC(=O)Nc3ccc(-c4nc(N5CCOCC5)nc(N5CCCN(C(C)C)CC5)n4)cc3)cc2)CC1', 7.33),
  ('CC(C)(C)OC(=O)N1CC(Nc2nc(-c3ccc(NC(=O)Nc4cccnc4)cc3)nc(N3CCOCC3)n2)C1', 7.64),
  ('CN(C)[C@@H]1CCN(C(=O)c2ccc(NC(=O)Nc3ccc(-c4nc(N5CCOCC5)nc(N5C6CCC5COC6)n4)cc3)cc2)C1', 8.70),
  ('CCc1nc(-c2ccc(NC(=O)Nc3cccc(C(=O)O)c3)cc2)nc(N2CCOCC2)n1', 7.19),
  ('CC(C)N(C)c1nc(-c2ccc(NC(=O)Nc3ccc(OCCN(C)C)cc3)cc2)nc(N2C3CCC2COC3)n1', 5.62),
  ('O=C(Nc1ccc(C(=O)NCCO)cc1)Nc1ccc(-c2nc(N3CCOCC3)nc(N3C4CCC3COC4)n2)cc1', 8.30);

(P) C[C@@H]1COCCN1c1nc(-c2ccc(NC(=O)Nc3ccc(C(=O)N(C)C)cc3)cc2)nc(N2CCOC[C@H]2C)n1
(Q) O=C(Nc1ccc(-c2nc(N3CC4CCC(C3)O4)nc(N3CC4CCC(C3)O4)n2)cc1)OCCO
Query string: API: POST /compare with P and Q ; response names the item with higher pIC50. Could you answer with the label of the item you picked?
Result string: P
(P: 7.39, Q: 5.91)

---

target.desc: UniProt:P42336
method.notes: PI3K-alpha fluorescence polarization assay
protocol.conditions: read-out: IC50 PI3Kα; listed as 528
measurement.name: pIC50
Interpret pIC50 as the negative base-10 log of the concentration measured in mol/L.

Query string: So what's the measured pIC50 for this one? COC(=O)c1ccc(NC(=O)Nc2ccc(-c3nc(-c4ccc(C)cc4)nc(N4CCOCC4)n3)cc2)cc1 [Example 344]
Result string: 5.79

---

Tested on: human prostate PC3-mm2 tumor cell line
method.notes: In vitro cell culture growth assay (MTS), PC3-mm2
Assay type: cell-based
protocol.conditions: MTS cell growth assay, three days after drug treatment; listed as 10; read-out: IC50 PC3-mm2
measurement.name: pIC50
Lab note — pIC50 values are minus log10 of concentrations in M.

Query string: What is its pIC50 for human prostate PC3-mm2 tumor cell line? Entry: O=C(Nc1ccc(Cl)cc1)Nc1ccc(-c2nc(N3CCOCC3)nc(N3CCOCC3)n2)cc1 [Example 8]
Result string: 5.75

---

target.desc: PI3K-α (Homo sapiens, UniProt P42336)
method.notes: PI3K-alpha fluorescence polarization assay
protocol.conditions: read-out: IC50 PI3Kα
measurement.name: IC50 (nM)

See these solved cases before continuing.
INSERT INTO results (compound, target_desc, measurement_name, reported) VALUES
  ('CC(C)c1nc(-c2ccc(NC(=O)Nc3ccc(C(=O)N4CCN(C(C)C)CC4)cc3)cc2)nc(N2CCOCC2)n1 [Example 491]', 'PI3K-α (Homo sapiens, UniProt P42336)', 'IC50', 3.5),
  ('CC(C)(C)OC(=O)N1CCC(Oc2nc(-c3ccc(NC(=O)Nc4ccncc4)cc3)nc(N3CCOCC3)n2)CC1 [Example 691]', 'PI3K-α (Homo sapiens, UniProt P42336)', 'IC50', 6),
  ('O=C(Nc1ccncc1)Nc1ccc(-c2nc(N3CCOCC3)nc(N3C4COCC3C(OCc3ccccc3)C4)n2)cc1 (centres unmarked) [Example 819]', 'PI3K-α (Homo sapiens, UniProt P42336)', 'IC50', 44);

(P) CC(=O)c1nc(-c2ccc(NC(=O)Nc3ccncc3)cc2)nc(N2CCOCC2)n1 [Example 209]
(Q) CN(C)c1ccc(NC(=O)Nc2ccc(-c3nc(N4CCOCC4)nc(N4CCC5(CC4)OCCO5)n3)cc2)cc1 [Example 133]
(R) CC(=O)N1CC2CN(c3nc(-c4ccc(NC(=O)Nc5ccncc5)cc4)nc(N4CCOCC4)n3)CC(C1)O2 [Example 292]
(S) CN1CCN(c2ccc(NC(=O)Nc3ccc(-c4nc(NS(=O)(=O)c5ccccc5)nc(N5CCOCC5)n4)cc3)cc2)CC1 [Example 782]
Query string: Rank the 4 compounds: largest IC50 first, smallest last. Quick reminder: the answer is the labels in the order asked.
Result string: R, S, Q, P
(R: 1500 nM, S: 124 nM, Q: 39 nM, P: 24 nM)

---

target.desc: UniProtKB P48736
method.notes: PI3K-gamma fluorescence polarization assay
protocol.conditions: read-out: IC50 PI3Kγ; listed as 749
measurement.name: pIC50
# reply with the number alone; pIC50 is -log10 of concentration in mol/L

Query string: Dear colleague, I am looking for the recorded pIC50 of the following compound: O=C(Nc1ccc(-c2nc(N3CCOCC3)nc(N3C4CCC3COC4)n2)cc1)Nc1ccc(Cl)nc1
Result string: 6.79

---

target.desc: PI3K-γ (Homo sapiens)
Sequence (P48736 whole entry, species assumed): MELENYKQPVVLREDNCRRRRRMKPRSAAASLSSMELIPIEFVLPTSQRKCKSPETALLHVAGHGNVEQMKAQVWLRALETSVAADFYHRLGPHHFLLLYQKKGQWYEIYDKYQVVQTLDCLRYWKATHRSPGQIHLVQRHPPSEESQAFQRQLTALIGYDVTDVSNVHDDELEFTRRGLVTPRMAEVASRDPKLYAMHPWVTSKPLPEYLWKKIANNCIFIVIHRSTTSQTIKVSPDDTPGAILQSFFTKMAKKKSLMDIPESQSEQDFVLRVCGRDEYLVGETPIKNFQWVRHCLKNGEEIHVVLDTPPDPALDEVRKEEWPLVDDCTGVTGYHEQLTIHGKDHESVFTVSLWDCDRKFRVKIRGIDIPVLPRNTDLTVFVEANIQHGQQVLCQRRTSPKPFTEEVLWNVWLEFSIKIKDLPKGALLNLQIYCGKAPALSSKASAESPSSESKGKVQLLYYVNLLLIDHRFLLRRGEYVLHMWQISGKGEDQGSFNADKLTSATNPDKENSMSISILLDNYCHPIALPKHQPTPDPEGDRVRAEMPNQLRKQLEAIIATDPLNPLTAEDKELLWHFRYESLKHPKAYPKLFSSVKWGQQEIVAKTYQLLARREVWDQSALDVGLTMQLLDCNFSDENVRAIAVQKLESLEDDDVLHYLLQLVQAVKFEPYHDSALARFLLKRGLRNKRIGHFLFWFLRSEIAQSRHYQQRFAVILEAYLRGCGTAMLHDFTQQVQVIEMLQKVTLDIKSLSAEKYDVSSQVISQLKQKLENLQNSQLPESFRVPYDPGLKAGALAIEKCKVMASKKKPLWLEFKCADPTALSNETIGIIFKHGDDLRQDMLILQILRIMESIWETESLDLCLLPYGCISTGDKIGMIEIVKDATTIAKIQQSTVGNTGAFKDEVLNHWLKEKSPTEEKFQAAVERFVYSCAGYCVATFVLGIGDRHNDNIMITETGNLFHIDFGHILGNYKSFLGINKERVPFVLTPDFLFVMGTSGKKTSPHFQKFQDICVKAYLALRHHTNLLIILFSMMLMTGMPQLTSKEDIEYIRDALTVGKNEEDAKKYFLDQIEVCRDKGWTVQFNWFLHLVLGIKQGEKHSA
method.notes: PI3K-gamma fluorescence polarization assay
protocol.conditions: read-out: IC50 PI3Kγ; listed as 730
measurement.name: pIC50
Conceptually, pIC50 converts a concentration in mol/L into minus its log10.

Query string: Fill in the recorded pIC50 for this compound, with PI3K-γ (Homo sapiens) as test system: O=C(Nc1ccncc1)Nc1ccc(-c2nc(CCC3OCCCO3)nc(N3CCOCC3)n2)cc1 [Example 267]
Result string: 7.19

---

target.desc: Human mTOR (FLAG-TOR) (Homo sapiens)
Sequence (P42345 1360-2549 limits assumed): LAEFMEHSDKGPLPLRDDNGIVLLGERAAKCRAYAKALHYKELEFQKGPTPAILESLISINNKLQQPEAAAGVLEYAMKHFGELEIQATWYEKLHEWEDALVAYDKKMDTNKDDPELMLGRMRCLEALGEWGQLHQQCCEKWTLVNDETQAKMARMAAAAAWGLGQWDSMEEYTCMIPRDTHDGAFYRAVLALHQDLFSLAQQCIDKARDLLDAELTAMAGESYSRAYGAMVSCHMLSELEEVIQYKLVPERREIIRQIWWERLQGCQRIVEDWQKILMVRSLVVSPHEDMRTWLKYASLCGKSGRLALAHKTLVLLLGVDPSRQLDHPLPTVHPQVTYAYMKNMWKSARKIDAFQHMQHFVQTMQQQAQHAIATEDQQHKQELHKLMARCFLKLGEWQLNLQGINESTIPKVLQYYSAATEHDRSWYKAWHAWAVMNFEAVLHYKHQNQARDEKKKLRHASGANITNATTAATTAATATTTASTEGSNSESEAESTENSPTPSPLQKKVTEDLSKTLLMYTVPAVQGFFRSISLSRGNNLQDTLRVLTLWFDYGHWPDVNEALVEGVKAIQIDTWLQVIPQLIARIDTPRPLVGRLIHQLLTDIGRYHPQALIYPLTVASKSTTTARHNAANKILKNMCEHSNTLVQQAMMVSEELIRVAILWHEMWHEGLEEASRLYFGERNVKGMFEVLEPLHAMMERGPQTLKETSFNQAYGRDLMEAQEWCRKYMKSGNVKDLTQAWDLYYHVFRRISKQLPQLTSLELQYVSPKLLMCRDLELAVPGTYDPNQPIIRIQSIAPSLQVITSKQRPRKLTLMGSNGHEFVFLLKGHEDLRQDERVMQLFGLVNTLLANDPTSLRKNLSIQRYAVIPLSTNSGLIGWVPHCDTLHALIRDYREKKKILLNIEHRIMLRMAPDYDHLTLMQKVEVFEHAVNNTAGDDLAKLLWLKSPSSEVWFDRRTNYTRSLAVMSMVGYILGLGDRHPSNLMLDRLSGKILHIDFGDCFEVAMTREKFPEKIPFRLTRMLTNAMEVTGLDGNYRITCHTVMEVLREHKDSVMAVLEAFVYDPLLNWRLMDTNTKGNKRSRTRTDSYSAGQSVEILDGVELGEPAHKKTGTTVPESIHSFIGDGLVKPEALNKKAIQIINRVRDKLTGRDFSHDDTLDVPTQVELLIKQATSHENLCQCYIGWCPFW
method.notes: mTOR kinase assay (DELFIA format, purified enzyme)
Assay type: biochemical
protocol.conditions: read-out: IC50 mTOR
pIC50: −log10 of the molar value.
measurement.name: pIC50

(a) CCS(=O)(=O)N1CCN(c2nc(-c3ccc(NC(=O)Nc4ccncc4)cc3)nc(N3CCOCC3)n2)CC1
(b) O=C(Nc1ccc(-c2nc(N(CCO)CCO)nc(N3CC4CCC(C3)O4)n2)cc1)Nc1cccnc1
(c) CC(C)Cc1nc(-c2ccc(NC(=O)Nc3ccc(C(=O)N4CCC(N(C)C)CC4)cc3)cc2)nc(N2CCOCC2)n1
Query string: List the molecules shown above again, sorted by falling pIC50 values. Sort and list the labels as requested.
Result string: b, c, a
(b: 8.70, c: 8.15, a: 7.66)

---

target.desc: PI3K-α (Homo sapiens, UniProt P42336)
method.notes: PI3K-alpha fluorescence polarization assay
protocol.conditions: read-out: IC50 PI3Kα; listed as 136
measurement.name: pIC50
Would you please state pIC50, meaning minus log10 of the concentration in mol/L, as a bare number?

Query string: Missing value: pIC50, PI3K-α (Homo sapiens, UniProt P42336), entry CN(C)CCNC(=O)Nc1ccc(-c2nc(N3CCOCC3)nc(N3CCC4(CC3)OCCO4)n2)cc1 . Fill in?
Result string: 6.68

---

target.desc: PI3K-α (Homo sapiens, UniProt P42336)
method.notes: PI3K-alpha fluorescence polarization assay
protocol.conditions: read-out: IC50 PI3Kα; listed as 724
measurement.name: pIC50
A value of pIC50 is the negative decimal logarithm of a concentration given in moles per litre.

Query string: Dear colleague, I am looking for the recorded pIC50 of the following compound: COc1nc(-c2ccc(NC(=O)Nc3ccc(C(=O)N4CCNC(C)(C)C4)cc3)cc2)nc(N2CCOCC2)n1
Result string: 8.82

---

Test system: human prostate LNCap tumor cell line
method.notes: In vitro cell culture growth assay (MTS), LNCap
protocol.conditions: read-out: IC50 LNCap; MTS cell growth assay, three days after drug treatment
measurement.name: IC50 (µM)

(1) O=C(Nc1ccc(-c2nc(N3C[C@@H]4C[C@H]3CO4)nc(N3C[C@@H]4C[C@H]3CO4)n2)cc1)Nc1ccc(N2CCNCC2)cc1
(2) CN1CCN(c2ccc(NC(=O)Nc3ccc(-c4nc(N5C[C@H]6C[C@@H]5CO6)nc(N5C[C@H]6C[C@@H]5CO6)n4)cc3)cc2)CC1
Query string: Could you point out whether the larger IC50 belongs to 1 or to 2 ? Answer = label.
Result string: 2
(2: 0.55 µM, 1: 0.1 µM)
